# Assay Target: JAK2 JH2 (Homo sapiens, UniProt O60674)
# Construct: JAK2 JH2
# Sequence (O60674 545-809 limits assumed): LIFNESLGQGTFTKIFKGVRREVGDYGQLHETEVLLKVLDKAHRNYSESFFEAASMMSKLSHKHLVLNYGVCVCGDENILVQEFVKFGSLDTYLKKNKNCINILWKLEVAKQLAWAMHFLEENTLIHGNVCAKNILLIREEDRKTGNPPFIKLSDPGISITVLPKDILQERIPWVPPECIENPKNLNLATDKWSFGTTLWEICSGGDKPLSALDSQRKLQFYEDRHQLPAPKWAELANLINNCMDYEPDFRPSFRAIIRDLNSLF
# Experiment Notes: KINOMEscan binding, JAK2 JH2
Measured Quantity: Kd

Substance Smiles | Kd
CNc1cc2nn3c(cnc13)C(=O)N[C@@H]1CCC[C@H]1OCc1cc(c3c(c1)nnn3C)N2 | ≥ 30 µM

// recorded Kd for `[2H]C1([2H])O[C@@H]2CCC[C@H]2NC(=O)c2cnc3c(NC)cc(nn23)Nc2cc1cc1c2nnn1C` : 1 to 10 µM

Kd recorded for this compound, `CNc1cc2nn3c(cnc13)C(=O)N[C@@H]1CCC[C@@H]1OCc1cc(c3nnn(C)c3c1)N2` , is 1 to 10 µM

The recorded Kd for entry `CNc1cc2nn3c(cnc13)C(=O)N[C@@H]1CCC[C@H]1OCc1cc(c3nnn(C)c3c1)N2` equals 1 to 10 µM

Field Kd (entry `CNc1cc2nn3c(cnc13)C(=O)N[C@@H]1CCC[C@@H]1OCc1cc(c3c(c1)nnn3C)N2` ) reads 1 to 10 µM

Entry `CNc1cc2nn3c(cnc13)C(=O)N[C@@H]1CCC[C@H]1OCc1cc(c3nn(C)nc3c1)N2` — recorded Kd = 1 to 10 µM

Entry `[2H]C1([2H])O[C@H]2CCC[C@H]2NC(=O)c2cnc3c(NC)cc(nn23)Nc2cc1cc1c2nnn1C` , Kd reported as 1 to 10 µM

Just so you know, measured Kd for `CNc1cc2nn3c(cnc13)C(=O)N[C@@H]1CCC[C@@H]1OCc1cc(c3nn(C)nc3c1)N2` came out at 10 to 30 µM
